FYI, the data here is from patent US8143262B2.

# target.under.test: Human PDE-4d (Homo sapiens, UniProt Q08499)
# Construct: The catalytic domain of PDE4d was cloned to pGEX4T3 (APBiotech) as GST fusion expression vector; GST (N)
# Sequence (Q08499 386-715 limits assumed): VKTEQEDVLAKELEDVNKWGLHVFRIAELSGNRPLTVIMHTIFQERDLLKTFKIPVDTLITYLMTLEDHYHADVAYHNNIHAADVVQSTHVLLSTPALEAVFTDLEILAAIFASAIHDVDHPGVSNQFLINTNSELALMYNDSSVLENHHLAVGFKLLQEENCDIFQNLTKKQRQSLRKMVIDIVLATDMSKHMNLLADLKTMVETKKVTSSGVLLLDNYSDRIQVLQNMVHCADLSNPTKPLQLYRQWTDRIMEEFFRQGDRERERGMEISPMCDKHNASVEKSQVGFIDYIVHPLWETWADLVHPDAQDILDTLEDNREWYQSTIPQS
# protocol.text: Inhibition of PDE-4 activity ([3H]cAMP hydrolysis, recombinant catalytic domain)
# condition.context: PDE4d 1 nM, cAMP 250 nM, 34° C., 45 minutes; read-out: IC50 against PDE-4 enzyme
measurement.name: pIC50
API: returns pIC50 as number; meaning -log10 of concentration in mol/L.

The compound listed as FC(F)Oc1ccc(-c2ccnc3nc(-c4ccc(I)cc4)nn23)cc1OCC1CC1 shows pIC50 equal to 7.30

pIC50 reading for [O-][n+]1ccc(-c2nc3nccc(-c4ccc(OC(F)F)c(OCC5CC5)c4)n3n2)cc1 : 6.80

compound Cc1ccc(-c2nc3nccc(-c4ccc(OC(F)F)c(OCC5CC5)c4)n3n2)c(C)c1 , pIC50 observed: 7.22

// pIC50 lookup, compound = FC(F)Oc1ccc(-c2ccnc3nc(-c4cccnc4)nn23)cc1OCC1CC1 [Compound 101] , result: 7.74

For record N#Cc1ncccc1-c1nc2nccc(-c3ccc(OC(F)F)c(OCC4CC4)c3)n2n1 the listed pIC50 is 6.72

pIC50 reported for this compound N#Cc1cccc(-c2nc3nccc(-c4ccc(OC(F)F)c(OCC5CC5)c4)n3n2)c1 : 8.00

pIC50 in this record for COc1ccc(-c2ccnc3nc(-c4cccc(C#N)c4)nn23)cc1OC1CCCC1 : 7.89

Lab note: measured pIC50 of COC(=O)c1ccc(-c2nc3nccc(-c4ccc(OC(F)F)c(OCC5CC5)c4)n3n2)cn1 was 6.74

Reported pIC50 ( FC(F)Oc1ccc(-c2ccnc3nc(-c4cccnc4)nn23)cc1OCC1CC1 [Compound 111] ) = 7.38

Lab book: pIC50 of N#Cc1cccc(-c2nc3nccc(-c4ccc(OC(F)F)c(OC(F)F)c4)n3n2)c1 noted as 7.33

Reported pIC50 for [O-][n+]1cccc(-c2nc3nccc(-c4ccc(OC(F)F)c(OCC5CC5)c4)n3n2)c1 was 7.13

Given item FC(F)Oc1ccc(-c2ccnc3nc(-c4cccc(Br)c4)nn23)cc1OCC1CC1 , the value recorded as its pIC50 is 7.85

pIC50 recorded for this compound, Cc1cccc(-c2nc3nccc(-c4ccc(OC(F)F)c(OCC5CC5)c4)n3n2)c1 , is 7.52

For this compound ( O=C(O)c1ccc(-c2nc3nccc(-c4ccc(OC(F)F)c(OCC5CC5)c4)n3n2)cn1 ), measured pIC50 is 6.70

Per the record, Cc1ccc(-c2nc3nccc(-c4ccc(OC(F)F)c(OCC5CC5)c4)n3n2)cc1 has pIC50 of 7.30

FC(F)Oc1ccc(-c2ccnc3nc(-c4cccc(C(F)(F)F)c4)nn23)cc1OCC1CC1 yielded pIC50 of 7.52

According to the records, this compound COc1ccc(-c2ccnc3nc(-c4cccnc4)nn23)cc1OC1CCCC1 displays pIC50 of 7.30

* * *

# target.under.test: Human PDE-4d (Homo sapiens)
# Construct: The catalytic domain of PDE4d was cloned to pGEX4T3 (APBiotech) as GST fusion expression vector; GST (N)
# protocol.text: Inhibition of PDE-4 activity ([3H]cAMP hydrolysis, recombinant catalytic domain)
# condition.context: PDE4d 1 nM, cAMP 250 nM, 34° C., 45 minutes; read-out: IC50 against PDE-4 enzyme
# Method: Experiment of inhibiting PDE-4 activity was carried out by modifying the method of Loughney (Loughney et al., Journal of Biological Chemistry, 1996, 271(2), 796-806). Human PDE-4d prepared by means of gene recombination technology was used as PDE-4d The catalytic domain of PDE4d was cloned to pGEX4T3 (APBiotech) as GST fusion expression vector, and then PDE4d gene was transformed to E. coli BL21, DE3. […]
pIC50: −log10 of the molar value.
Outcome label depends on pIC50 relative to 7: at/above gives criterion met, below gives criterion not met.

In: Could you tell me if the measured pIC50 of N#Cc1ccc(-c2nc3nccc(-c4ccc(OC(F)F)c(OCC5CC5)c4)n3n2)cn1 [Compound 123] reaches 7 or more?
Out: criterion not met

In: Quick check: does [O-][n+]1cccc(-c2nc3nccc(-c4ccc(OC(F)F)c(OC(F)F)c4)n3n2)c1 [Compound 130] have pIC50 greater than or equal to 7?
Out: criterion not met

In: Could you please find out whether FC(F)Oc1ccc(-c2ccnc3nc(-c4cccc(Cl)c4)nn23)cc1OCC1CC1 [Compound 120] has pIC50 that meets 7 or exceeds it?
Out: criterion met

In: // inclusive: pIC50 at least 7? input: O=C(O)c1cccc(-c2nc3nccc(-c4ccc(OC(F)F)c(OCC5CC5)c4)n3n2)c1 [Compound 131]
Out: criterion met

In: Textbook exercise: given the entry Nc1cccc(-c2nc3nccc(-c4ccc(OC(F)F)c(OCC5CC5)c4)n3n2)c1 [Compound 119] , state whether its pIC50 is greater than or equal to 7.
Out: criterion met

In: # bool: pIC50 of Fc1cccc(-c2nc3nccc(-c4ccc(OC(F)F)c(OCC5CC5)c4)n3n2)c1 [Compound 106] >= 7
Out: criterion met

In: Test whether the compound CSc1ccc(-c2nc3nccc(-c4ccc(OC(F)F)c(OCC5CC5)c4)n3n2)cc1 [Compound 140] records pIC50 of 7 or higher.
Out: criterion met

* * *

# target.under.test: Human PDE-4d (Homo sapiens)
# Construct: The catalytic domain of PDE4d was cloned to pGEX4T3 (APBiotech) as GST fusion expression vector; GST (N)
# protocol.text: Inhibition of PDE-4 activity ([3H]cAMP hydrolysis, recombinant catalytic domain)
# condition.context: PDE4d 1 nM, cAMP 250 nM, 34° C., 45 minutes; read-out: IC50 against PDE-4 enzyme
Decide using IC50 alone. Strictly below 50 nM: True. Equal to or above 50 nM: False.

In: Could you please tell me whether IC50 recorded for COc1cc(-c2nc3nccc(-c4ccc(OC(F)F)c(OCC5CC5)c4)n3n2)ccc1C [Compound 134] is less than 50 nM?
Out: True

In: Input FC(F)Oc1ccc(-c2ccnc3nc(-c4ccc(C(F)(F)F)cc4)nn23)cc1OCC1CC1 [Compound 125] ; condition: IC50 strictly below 50 nM. Does it hold?
Out: False

In: Is 50 nM strictly greater than the compound's reported IC50? compound: FC(F)Oc1ccc(-c2ccnc3nc(-c4ccc(Cl)nc4)nn23)cc1OCC1CC1 [Compound 104]
Out: False

In: is_below(IC50, 50 nM) for [O-][n+]1cc(-c2nc3nccc(-c4ccc(OC(F)F)c(OCC5CC5)c4)n3n2)ccc1Cl [Compound 108] ?
Out: False

In: Determine whether this compound shows IC50 lower than 50 nM (ties excluded): O=[N+]([O-])c1cccc(-c2nc3nccc(-c4ccc(OC(F)F)c(OCC5CC5)c4)n3n2)c1 [Compound 116]
Out: True

In: Please check: IC50 for [O-][n+]1cccc(-c2nc3nccc(-c4ccc(OC(F)F)c(OCC5CC5)c4)n3n2)c1Cl [Compound 109] , strictly under 50 nM or not?
Out: False

In: Consider the compound FC(F)Oc1ccc(-c2ccnc3nc(-c4cccc(I)c4)nn23)cc1OCC1CC1 [Compound 126] . Is its IC50 strictly less than 50 nM?
Out: True

In: API: query returns whether the compound falls strictly under 50 nM in IC50. Query: NC(=O)c1ccc(-c2nc3nccc(-c4ccc(OC(F)F)c(OCC5CC5)c4)n3n2)cn1 [Compound 139]
Out: True

In: Report whether reported IC50 is lower than 50 nM (strictly) for FC(F)Oc1ccc(-c2ccnc3nc(-c4cccnc4)nn23)cc1OCC1CC1 [Compound 112]
Out: True

In: Hi there! Is IC50 for COc1cccc(-c2nc3nccc(-c4ccc(OC(F)F)c(OCC5CC5)c4)n3n2)c1 [Compound 107] below 50 nM, do you know?
Out: True

In: Quick check: does FC(F)Oc1ccc(-c2ccnc3nc(-c4ccncc4)nn23)cc1OCC1CC1 [Compound 103] have IC50 under 50 nM?
Out: False

In: Please let me know if FC(F)Oc1ccc(-c2ccnc3nc(-c4cccnc4Cl)nn23)cc1OCC1CC1 [Compound 105] shows IC50 below 50 nM.
Out: False

In: Strictly below 50 nM in IC50? Cc1cc(C)cc(-c2nc3nccc(-c4ccc(OC(F)F)c(OCC5CC5)c4)n3n2)c1 [Compound 133]
Out: True

In: Given FC(F)Oc1ccc(-c2ccnc3nc(-c4cccnc4)nn23)cc1OC(F)F [Compound 114] , is recorded IC50 strictly lower than 50 nM?
Out: False

In: Dear reviewer, please state whether O=C(O)c1ccc(-c2nc3nccc(-c4ccc(OC(F)F)c(OCC5CC5)c4)n3n2)cc1 [Compound 118] has IC50 strictly beneath 50 nM.
Out: True
